target: Lanosterol 14-alpha demethylase (Aspergillus) (UniProt B8NUK6+Q9P8R0+G4WW85); experiment: Inhibition of Aspergillus fumigatus CYP51 assessed as reduction in [3-3H]eburicol 14alpha-demethylation at 0.75 uM preincubated for 60 secs followed by NADPH addition measured after 60 mins by RP-HPLC analysis relative to control
Readout name: inhibition (%)

>>> print(df.to_string())
                                 smiles_str                     target_or_test_system  reading
0  CC[C@@H]([C@H](C)O)n1ncn(-c2ccc(N3CCN(c4ccc(OC[C@@H]5CO[C@@](Cn6cncn6)(c6ccc(F)cc6F)C5)cc4)CC3)cc2)c1=O  Lanosterol 14-alpha demethylase (Aspergillus) (UniProt B8NUK6+Q9P8R0+G4WW85)       93
1  CS(=O)(=O)c1ccc(-c2nnc(-c3ccc(C(=O)N[C@@H](Cn4ccnc4)c4ccc(Cl)cc4Cl)cc3)o2)cc1Cl  Lanosterol 14-alpha demethylase (Aspergillus) (UniProt B8NUK6+Q9P8R0+G4WW85)       32
2  O=C(N[C@@H](Cn1ccnc1)c1ccc(Cl)cc1Cl)c1ccc(-c2nnc(-c3cc(F)cc(-c4ccccn4)c3)o2)cc1  Lanosterol 14-alpha demethylase (Aspergillus) (UniProt B8NUK6+Q9P8R0+G4WW85)       80
